# System: HOP-62 NSCLC
# Test Method Notes: NCI tumour cell line growth inhibition, 48 h; in the data active means GI50 below about 0.43 µM; inactive means the rest
Your answer must be one of the following: active, inactive

Take a look at these entries with their results.
• CS(=O)(=O)OCCn1c2c(c3c(O)cccc31)C(=O)c1ccccc1-2 = inactive
• CC(C)=C[C@@H]1C[C@H](C)[C@H]2CC[C@H](C)c3c(O)c(OC4OCC(O)C(O)C4O)c(C)c1c32 (stereo not given in full) = inactive
• C1CCC(C(CC2CCCCN2)C2CCCCC2)CC1 (stereo not given) = inactive

Dear colleague, could you share the recorded outcome for `O=C(Nc1ccc(-n2ccc3c(NC(=O)c4ccccc4)ncnc32)cc1)c1ccc(Cl)c(C(F)(F)F)c1` when you have a moment?
inactive

# iterate: CN1C(=O)C23CC4(C56CC78SSC(CO)(C(=O)N7C5Nc5ccccc56)N(C)C8=O)c5ccccc5NC4N2C(=O)C1(CO)SS3 (stereo not given)
active
